System: A549/ATCC NSCLC
experimental protocol: NCI-60 one-dose screen, 48 h (100 = growth as untreated, 0 = no growth, -100 = all killed)
test conditions: 10 µM unless noted
About 83,000 compounds went through this panel and 20% of them were active in at least one assay; those are over-represented in the sample as a whole.
reported metric: growth (%)
The response must be a number in % with no trailing unit.

>>> value_measured("COc1ccc(NC(=O)/C(=C/N2C(=O)/C(=C/c3ccc(OC)c(OC)c3)NC2=S)C(C)=O)cc1")
63.8
>>> value_measured("O=C1C(=O)c2cc([N+](=O)[O-])ccc2-c2ccccc21")
-52.2
>>> value_measured("Nc1ccc(C(=O)/C=C/c2ccccc2)cc1")
91.5
>>> value_measured("O=[N+]([O-])c1ccc2c(c1)Cc1ccccc1-2")
94.8
>>> value_measured("O=C1C=CC(=O)N1C1CCCCCCCCCCC1")
91.6

// query Please report growth for the following compound: `Oc1ccc2ccccc2c1N=Nc1ccccn1`
// result 53.5

// query Please report growth for the following compound: CCN(CC)CC(O)CNc1ccc(NCC2CO2)c2c1C(=O)c1ccccc1C2=O (centres undefined)
// result 7.32

// query Please report growth for the following compound: `Cc1oc2c(C)c3oc(=O)cc(C)c3cc2c1CCl`
// result 88.5

// query Please report growth for the following compound: `CCCOC(=O)c1nc(N(CC2CCCCC2)C(=O)NC)sc1/N=C/c1ccccc1`
// result 13.6

// query Please report growth for the following compound: `O=C(c1ccccc1)c1ccc(O)c2ncccc12`
// result 30.2

// query Please report growth for the following compound: `Oc1ccccc1N=Cc1ccccc1`
// result 98.2

###

Tested on: KM12 colon
experimental protocol: NCI-60 one-dose screen, 48 h
test conditions: 10 µM unless noted
About 83,000 compounds went through this panel and 20% of them were active in at least one assay; those are over-represented in the sample as a whole. Calls of active or inactive are those of the source. The calls were made as follows: active = growth percent below 10; inactive = the rest.
Output constraint: value belongs to Y (active), N (inactive)

>>> classification("CN(C)c1ccc(C(=C2C=CC(=[N+](C)C)C=C2)c2ccc(N(C)C)cc2)cc1")
"Y"
>>> classification("CCCCCCCCCCCC[N+]1(CCCCCCCCCCCC)CCCC(C)C1 (stereo unspecified)")
"Y"
>>> classification("C[n+]1ccccc1C[n+]1ccccc1")
"N"
>>> classification("Clc1ccccc1C(c1ccccc1)(c1ccccc1)n1ccnc1")
"N"
>>> classification("CCc1oc2ccccc2c1C(=O)c1cc(Br)c(O)c(Br)c1")
"N"

We now examine a further compound.
// query # fetch the recorded call for O=[N+]([O-])CC(O)c1ccccc1 (stereo unspecified) here
// result N

###

Tested on: OVCAR-3 ovarian
experimental protocol: NCI-60 one-dose screen, 48 h (100 = growth as untreated, 0 = no growth, -100 = all killed)
test conditions: 10 µM unless noted
About 83,000 compounds went through this panel and 20% of them were active in at least one assay; those are over-represented in the sample as a whole.
This section presents compounds with their documented growth values.
The response must be a number in % with no trailing unit.

Use these answered entries as a reference point.
>>> value_measured("O=C1C=C(Cl)C(=O)c2ccccc21")
89.8
>>> value_measured("NCCCN(CCCN)CCCNCc1c2ccccc2c(CNCCCN(CCCN)CCCN)c2ccccc12")
107
>>> value_measured("CCN1CCCC(Nc2cc(C)nc(/N=C(/N)Nc3ccc(Cl)c(Cl)c3)n2)C1 (configuration not stated)")
-49

// query Consider the compound `O=C1C=Cc2ccccc2/C1=C/c1nc(-c2ccccc2)oc1O` tested on OVCAR-3 ovarian; state its growth.
// result 91.6

// query Consider the compound `c1csc(-c2[nH]nc3c2CCc2ccccc2-3)c1` tested on OVCAR-3 ovarian; state its growth.
// result 28.1
